Observed Ki for glucocorticoid receptor (Homo sapiens, UniProt P04150), reported per entry below.

// worked examples, Ki included
# molecule, Ki
records = [
    ("O=c1[nH]c2ccc(/C=C3/c4ccc(F)cc4CCc4ncccc43)cc2[nH]1 [Example 518]", "< 500 nM"),
    ("COc1ccc2c(c1)CCc1cc(OC)ccc1C2=Cc1cccc(O)c1 [Example 193]", "< 500 nM"),
    ("O=c1[nH]c2cc(/C=C3/c4ccccc4COc4cc(F)ccc43)ccc2o1 [Example 632]", "< 500 nM"),
]

Query string: Entry COc1ccc2c(c1)CSc1ccccc1/C2=C(\C)c1cccc(NS(C)(=O)=O)c1 [Example 842] , system glucocorticoid receptor (Homo sapiens, UniProt P04150): what Ki was measured?
Result string: < 500 nM

Query string: What reported Ki corresponds to Cc1cccc2c1CCc1ccccc1/C2=C\c1ccc(NS(C)(=O)=O)cc1 [Example 316] on glucocorticoid receptor (Homo sapiens, UniProt P04150)?
Result string: < 500 nM

Query string: Fill in the recorded Ki for this molecule, with glucocorticoid receptor (Homo sapiens, UniProt P04150) as test system: Oc1cccc(C=C2c3ccc(Cl)cc3CCc3cc(Cl)ccc32)c1 [Example 183]
Result string: < 500 nM

Query string: Provide the documented Ki with glucocorticoid receptor (Homo sapiens, UniProt P04150) as the system for Oc1cccc(C=C2c3ccccc3CCc3c(F)cccc32)c1 [185(a)]
Result string: < 500 nM

Query string: Form entry - test system: glucocorticoid receptor (Homo sapiens, UniProt P04150); read-out: Ki; molecule: CS(=O)(=O)Nc1csc(C=C2c3ccccc3CCc3ccccc32)n1 [Example 446]
Result string: < 500 nM

----------
# Ki per entry
# tested system: human MR (Homo sapiens)
# Construct: The full length human MR gene is cloned from a human kidney or human brain cDNA library; His tag from the pAcHLT vector (own knowledge); made in house; host or cells: Sf9 insect cells (baculovirus, pAcHLT transfer vector)
# Sequence (P08235 whole entry): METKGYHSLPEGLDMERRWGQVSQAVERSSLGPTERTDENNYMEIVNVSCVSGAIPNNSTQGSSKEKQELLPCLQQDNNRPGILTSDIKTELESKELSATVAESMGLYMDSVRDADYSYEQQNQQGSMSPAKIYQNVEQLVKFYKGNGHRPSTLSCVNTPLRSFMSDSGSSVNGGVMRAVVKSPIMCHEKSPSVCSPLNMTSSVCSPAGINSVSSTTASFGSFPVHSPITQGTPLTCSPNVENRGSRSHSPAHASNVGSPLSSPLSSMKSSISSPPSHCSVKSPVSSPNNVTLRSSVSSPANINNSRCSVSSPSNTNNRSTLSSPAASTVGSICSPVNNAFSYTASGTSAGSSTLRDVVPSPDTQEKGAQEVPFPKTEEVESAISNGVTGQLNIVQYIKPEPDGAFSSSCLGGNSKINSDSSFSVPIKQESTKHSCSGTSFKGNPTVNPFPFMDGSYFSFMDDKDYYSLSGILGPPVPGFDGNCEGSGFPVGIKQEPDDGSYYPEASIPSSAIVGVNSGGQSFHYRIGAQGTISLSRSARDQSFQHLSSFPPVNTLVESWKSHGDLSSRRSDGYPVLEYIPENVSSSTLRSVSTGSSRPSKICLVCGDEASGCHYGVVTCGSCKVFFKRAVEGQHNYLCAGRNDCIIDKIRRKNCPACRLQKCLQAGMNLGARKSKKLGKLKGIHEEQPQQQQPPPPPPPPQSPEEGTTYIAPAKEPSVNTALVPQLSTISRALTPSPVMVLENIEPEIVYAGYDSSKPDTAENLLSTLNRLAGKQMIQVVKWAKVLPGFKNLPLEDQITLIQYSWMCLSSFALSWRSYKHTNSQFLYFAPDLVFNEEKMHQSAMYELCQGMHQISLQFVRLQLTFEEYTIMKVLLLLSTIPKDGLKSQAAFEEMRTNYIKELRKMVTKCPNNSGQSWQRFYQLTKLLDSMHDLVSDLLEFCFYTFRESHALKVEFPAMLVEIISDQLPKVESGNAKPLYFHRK
# protocol description: Mineralocorticoid Receptor Binding Assay ([3H]-aldosterone)
# run conditions: [3H]-aldosterone binding, human MR expressed in Sf9 cells; read-out: MR Ki

Known results for molecules:
# molecule, tested system, result
measured = [
    ("CS(=O)(=O)Nc1cccc(C=C2c3ccccc3CCc3c2cccc3-c2ccccc2)c1 [Example 411]", "human MR (Homo sapiens)", "< 500 nM"),
    ("Fc1ccc2c(c1)CCc1ccccc1C2=Cc1cccnc1F [Example 474]", "human MR (Homo sapiens)", "< 500 nM"),
    ("Oc1cccc(C=C2c3ccccc3CCc3cc(F)ccc32)c1 [200(a)]", "human MR (Homo sapiens)", "< 500 nM"),
    ("Nc1ccccc1CC1c2ccccc2CCc2ccccc21 [Example 287]", "human MR (Homo sapiens)", "< 500 nM"),
    ("CS(=O)(=O)Nc1cccc(C=C2c3ccccc3CCc3c(F)cccc32)c1 [184(a)]", "human MR (Homo sapiens)", "< 500 nM"),
]

Query string: Which Ki reading was recorded for the molecule CC/C(=C1/c2ccccc2CCc2cc(C)ccc21)c1cccc(NS(C)(=O)=O)c1 [Example 780] ?
Result string: < 500 nM

Query string: Quick one: Ki for CS(=O)(=O)Nc1cc(F)cc(C=C2c3ccccc3CCc3ccccc32)c1 [Example 50] ?
Result string: < 500 nM

Query string: Quick one: Ki of Cc1nc2c(s1)/C(=C\c1cccc(NS(C)(=O)=O)c1)c1ccccc1CC2 [483(b)] ?
Result string: < 500 nM

Query string: Bench note: what Ki did Oc1cccc(C=C2c3ccccc3CCc3c(F)cccc32)c1 [185(a)] show?
Result string: < 500 nM

Query string: Item under review: Cc1ccc2c(c1)/C(=C/c1cccc(NS(C)(=O)=O)c1)c1ccccc1CO2 [Example 678] . Reported Ki?
Result string: < 500 nM

----------
Parameter Ki, tested on glucocorticoid receptor (Homo sapiens), listed per item.

# compound, tested system, Ki
rows = [
    ("Cc1c(C=C2c3ccccc3CCc3ccccc32)cccc1NS(C)(=O)=O [Example 48]", "glucocorticoid receptor (Homo sapiens)", "< 500 nM"),
    ("Fc1ccc2c(c1)CCc1ncccc1/C2=C/c1ccccc1 [Example 526]", "glucocorticoid receptor (Homo sapiens)", "< 10000 nM"),
    ("COc1cccc2c1OCc1ccccc1/C2=C/c1cccc(NS(C)(=O)=O)c1 [Example 669]", "glucocorticoid receptor (Homo sapiens)", "< 500 nM"),
]

Query string: If you can, please state the reported Ki value of C(=C1c2ccccc2CCc2ccccc21)c1ccc2ocnc2c1 [Example 217] .
Result string: < 10000 nM

Query string: GET /values?readout=Ki&item= O=c1[nH]c2ccc(/C=C3\c4ccccc4CCc4ncsc43)cc2[nH]1 [Example 561]
Result string: < 1000 nM

Query string: Please report the recorded Ki for CS(=O)(=O)Nc1cc(F)cc(/C=C2\c3ccc(F)cc3CCc3nc(C(F)F)ccc32)c1 [Example 595] .
Result string: < 500 nM

Query string: What Ki value was documented for this compound, O/N=C/c1ccc(C=C2c3ccccc3CCc3ccccc32)cc1 [Example 79] ?
Result string: < 500 nM

Query string: Entry CS(=O)(=O)NCc1cccc(/C=C2\c3ccccc3CSc3ccccc32)c1 [Example 722] : reported Ki = ?
Result string: < 500 nM

Query string: May I ask what Ki has been recorded for COc1ccc2c(c1)CSc1ccccc1/C2=C(/C)c1cccc(NS(C)(=O)=O)c1 [Example 841] ?
Result string: < 500 nM

----------
# tested system: glucocorticoid receptor (Homo sapiens)
pKi: −log10 of the molar value.
quantity kind: pKi

Worked cases, pKi given:
# compound, pKi
rows = [
    ("Oc1cccc(/C=C2/c3ccccc3CCc3c(Br)cccc32)c1 [Example 371]", "> 6.30"),
    ("CCC/C(=C1/c2ccccc2COc2ccccc21)c1cccc(NS(C)(=O)=O)c1 [Example 802]", "> 6.30"),
    ("FC(F)c1cccc(C=C2c3ccccc3CCc3ccccc32)c1 [Example 72]", "> 5.00"),
    ("Cc1ccc2c(c1)C(=Cc1ccc(NS(C)(=O)=O)cc1)c1ccccc1CC2 [Example 305]", "> 6.00"),
]

Query string: Sample COc1cccc2c1COc1ccccc1/C2=C\c1cccc(NS(C)(=O)=O)c1 [Example 707] — what was its pKi?
Result string: > 6.30

----------
# tested system: UniProtKB P04150
# Sequence (P04150 1-777): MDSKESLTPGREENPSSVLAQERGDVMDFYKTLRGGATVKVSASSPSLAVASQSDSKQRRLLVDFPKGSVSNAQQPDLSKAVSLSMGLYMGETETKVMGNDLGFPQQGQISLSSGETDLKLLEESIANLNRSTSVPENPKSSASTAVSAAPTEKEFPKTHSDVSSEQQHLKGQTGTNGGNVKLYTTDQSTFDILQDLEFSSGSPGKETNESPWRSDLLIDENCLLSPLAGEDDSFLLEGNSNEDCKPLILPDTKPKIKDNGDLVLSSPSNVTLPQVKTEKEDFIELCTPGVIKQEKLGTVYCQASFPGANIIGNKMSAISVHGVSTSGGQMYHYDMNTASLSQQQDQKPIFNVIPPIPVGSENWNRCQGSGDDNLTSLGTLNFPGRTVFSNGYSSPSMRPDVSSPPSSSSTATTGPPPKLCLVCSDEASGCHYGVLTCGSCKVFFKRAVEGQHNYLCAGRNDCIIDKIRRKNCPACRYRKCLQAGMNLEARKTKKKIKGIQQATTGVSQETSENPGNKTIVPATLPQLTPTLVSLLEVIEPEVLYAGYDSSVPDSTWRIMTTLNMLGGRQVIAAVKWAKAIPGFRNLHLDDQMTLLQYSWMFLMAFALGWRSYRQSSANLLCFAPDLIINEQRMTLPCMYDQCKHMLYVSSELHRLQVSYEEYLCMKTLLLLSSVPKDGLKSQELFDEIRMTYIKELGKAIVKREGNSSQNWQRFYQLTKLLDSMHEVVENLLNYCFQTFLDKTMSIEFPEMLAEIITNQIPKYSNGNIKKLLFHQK
pKi: −log10 of the molar value.
pKi by entry:

Look over these answered cases.
# smiles notation, pKi
records = [
    ("O=c1[nH]c2ccc(/C=C3/c4ccccc4COc4cc(F)ccc43)cc2[nH]1", "> 6.00"),
    ("CS(=O)(=O)Nc1cccc(/C=C2/c3ccccc3CCc3cc(-c4ccccc4)ccc32)c1", "> 6.00"),
    ("O=c1[nH]c2ccc(/C=C3\\c4ccccc4COc4cc(C(F)(F)F)ccc43)cc2[nH]1", "> 5.00"),
    ("COc1ccc(S(=O)(=O)Nc2cccc(C=C3c4ccccc4CCc4cc(Cl)ccc43)c2)cc1", "> 6.30"),
    ("CS(=O)(=O)Nc1cccc(C=C2c3ccccc3CCc3ccc(S(C)(=O)=O)cc32)c1", "> 6.30"),
]

Query string: // returns reported pKi for input Fc1ccc2c(c1)OCc1ccccc1C2=Cc1cccc(C(F)F)c1
Result string: > 6.30

Query string: Given CS(=O)(=O)Nc1cccc(/C=C2/c3cccnc3CCc3c(Cl)cccc32)c1 , state its recorded pKi.
Result string: > 6.30

Query string: Give the measured pKi of Cc1ccc2c(c1)CCc1cc(F)ccc1/C2=C\c1cccc(NS(C)(=O)=O)c1 .
Result string: > 6.30
